# Tested target: PSMA on LNCaP cells (Homo sapiens, UniProt Q04609)
# Sequence (Q04609 whole entry): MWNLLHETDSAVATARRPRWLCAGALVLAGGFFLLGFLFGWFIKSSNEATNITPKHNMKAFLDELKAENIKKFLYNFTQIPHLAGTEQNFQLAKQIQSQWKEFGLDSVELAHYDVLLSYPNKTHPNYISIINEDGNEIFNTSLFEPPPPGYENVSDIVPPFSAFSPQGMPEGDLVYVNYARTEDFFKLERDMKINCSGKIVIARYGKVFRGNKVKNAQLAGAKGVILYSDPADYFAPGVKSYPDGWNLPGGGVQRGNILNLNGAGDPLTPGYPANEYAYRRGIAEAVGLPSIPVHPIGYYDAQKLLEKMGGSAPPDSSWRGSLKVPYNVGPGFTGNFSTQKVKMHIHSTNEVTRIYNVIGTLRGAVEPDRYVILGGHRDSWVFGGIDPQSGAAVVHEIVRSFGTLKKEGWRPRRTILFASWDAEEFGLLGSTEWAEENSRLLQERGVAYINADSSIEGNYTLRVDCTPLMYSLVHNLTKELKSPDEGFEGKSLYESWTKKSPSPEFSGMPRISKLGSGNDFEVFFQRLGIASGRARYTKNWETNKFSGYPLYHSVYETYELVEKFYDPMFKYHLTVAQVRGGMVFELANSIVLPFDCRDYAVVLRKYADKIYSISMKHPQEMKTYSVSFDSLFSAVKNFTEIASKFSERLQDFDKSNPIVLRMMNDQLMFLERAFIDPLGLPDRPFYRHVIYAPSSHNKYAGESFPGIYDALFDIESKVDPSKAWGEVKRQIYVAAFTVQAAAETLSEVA
Metric: pIC50
The scale used: pIC50 is minus the common logarithm of the concentration in molar units.

Lookup result for O=C(O)CC[C@H](NC(=O)N[C@@H](CCC(=O)N[C@@H](CCCCNC(=O)CCCc1ccc(I)cc1)C(=O)O)C(=O)O)C(=O)O ; measured pIC50: 7.82
